# System: HPPD polypeptides
# Method Description: coupled HPPD activity assay: turnover and residual turnover in crude extracts
# Type: biochemical, Pseudomonas fluorescens
# Condition Set: presence of 100 μM Cmpd. 1; high substrate concentration; changes in absorbance (OD) at 320 nm
Each entry below carries its recorded Residual turnover.
Endpoint Label: Residual turnover

>>> measured("34 (protein, mutant HPPD polypeptide) MADLYENPMGLMGFEFIEFASPTPGTLEPIFEIMGFTKVATHRSKNVHLYRQGEINLILNNEPNSIASYFAAEHGPSVCGMAFRVKDSQKAYNRALELGAQPIHIDTGPMELNLPAIKGIGGAPLYLIDRFGEGSSIYDIDFVYLEGVERNPVGAGLKVIDHLTHNVYRGRMVYWANFYEKLFNFREARYFDIKGEYTGLTSKAMSAPDGMIRIPLNEESSKGAGQIEEFLMQFNGEGIQHVAFLTDDLVKTWDALKKIGMRFMTAPGDNYYEMLEGRLPDHGEPVDQLQARGILLDGSSVEGDKRLLLQIFSETLMGPVFFEFIQRKGDDGFGPHSFKVLFESVERDQVRRGVLTAD")
0.113
>>> measured("9 (protein, mutant HPPD polypeptide) MADLYENPMGLMGFEFIEFASPTPGTLEPIFEIMGFTKVATHRSKNVHLYRQGEINLILNNEPNSIASYFAAEHGPSVCGMAFRVKDSQKAYNRALELGAQPIHIDTGPMELNLPAIKGIGGAPLYLIDRFGEGSSIYDIDFVYLEGVERNPVGAGLKVIDHLTHNVYRGRMVYWANFYEKLFNFREARYFDIKGEYTGLTSKAMSAPDGMIRIPLNEESSKGAGQIEEFLMQFNGEGIQHVAFLTDDLVKTWDALKKIGMRFMTAPADTYYEMLEGRLPDHGEPVDQLQARGILLDGSSVEGDKRLLLQIFSETLMGPVFFEFIQRKGDDGFGPDSFKVLFESVERDQVRRGVLTAD")
0.053

Origin of measurements: patent US11180770B2
